- Target or system: glucokinase (GK) (Homo sapiens, UniProt P35557)
- Construct: I.D. No. 1 corresponds to residues 12-465 of glucokinase
- Assay name: enzymatic glucokinase activity assay (ATP consumption, KinaseGlo luminescence)
- Stated conditions: recombinant GK residues 12-465; 5 μM ATP, 5 mM Glucose; Kact = concentration that displays 50% of the maximal increase in GK activity; read-out: pKact
Readings of EC50 for the listed compounds
Endpoint name: EC50

# Compound, Target or system, Endpoint name, Data value
rows = [
    ("Cc1cc(-c2ccc(F)c(Cl)c2)cc(=O)n1[C@@H](CC1CCCCC1)C(=O)Nc1nccs1 [Example 106]", "glucokinase (GK) (Homo sapiens, UniProt P35557)", "EC50", "> 15.8 µM"),
    ("Cc1cc(-c2ccccc2F)cc(=O)n1[C@@H](CC1CCCCC1)C(=O)Nc1nccs1 [Example 110]", "glucokinase (GK) (Homo sapiens, UniProt P35557)", "EC50", "> 15.8 µM"),
    ("O=C(Nc1nccs1)[C@H](CC1CCCCC1)n1ccc(S(=O)(=O)C2CCCC2)cc1=O [Example 13]", "glucokinase (GK) (Homo sapiens, UniProt P35557)", "EC50", "< 1.58 µM"),
]

---

- Target or system: glucokinase (GK) (Homo sapiens)
- Construct: I.D. No. 1 corresponds to residues 12-465 of glucokinase; made in house; host or cells: E. coli DH10b-T1r
- Assay name: enzymatic glucokinase activity assay (ATP consumption, KinaseGlo luminescence)
- Type: biochemical
- Stated conditions: recombinant GK residues 12-465; 5 μM ATP, 5 mM Glucose; Kact = concentration that displays 50% of the maximal increase in GK activity; read-out: pKact
- Text: The activity of compounds as glucokinase activators may be assayed in vitro, in vivo or in a cell line. Provided below is an enzymatic glucokinase activity assay. Purified glucokinase may be obtained as follows. […] SEQ. […] Recombinant protein may be isolated from cellular extracts by passage over Sepharose Q Fast Flow resin (Pharmacia). […] The purity of GK may be determined on denaturing SDS-PAGE gel. […]

# Molecule, EC50
measured = [
    ("NC(=O)c1ccc(NC(=O)[C@@H](CC2CCOCC2)n2ccc(S(=O)(=O)C3CCCC3)cc2=O)nc1", "> 15.8 µM"),
    ("O=C(Nc1ncc(Cl)s1)[C@H](CC1CCOCC1)n1cc(Cl)c(S(=O)(=O)C2CC2)cc1=O", "1.58 to 15.8 µM"),
    ("COCCC(C)(C)S(=O)(=O)c1ccn(C(CC2CCOCC2)C(=O)Nc2nc3ccc(OC)nc3s2)c(=O)c1 (centres unmarked)", "1.58 to 15.8 µM"),
    ("COc1ccc2nc(NC(=O)[C@@H](CC3CCOCC3)n3ccc(S(=O)(=O)CCCO)cc3=O)sc2n1", "> 15.8 µM"),
    ("COc1ccc2nc(NC(=O)[C@H](CC3CCOCC3)n3c(C)cc(S(=O)(=O)c4ccoc4C)cc3=O)sc2n1", "1.58 to 15.8 µM"),
]

---

- Target or system: glucokinase (GK) (Homo sapiens, UniProt P35557)
- Construct: I.D. No. 1 corresponds to residues 12-465 of glucokinase
- Sequence (P35557 with tags, fused parts or gaps isoform P35557-2): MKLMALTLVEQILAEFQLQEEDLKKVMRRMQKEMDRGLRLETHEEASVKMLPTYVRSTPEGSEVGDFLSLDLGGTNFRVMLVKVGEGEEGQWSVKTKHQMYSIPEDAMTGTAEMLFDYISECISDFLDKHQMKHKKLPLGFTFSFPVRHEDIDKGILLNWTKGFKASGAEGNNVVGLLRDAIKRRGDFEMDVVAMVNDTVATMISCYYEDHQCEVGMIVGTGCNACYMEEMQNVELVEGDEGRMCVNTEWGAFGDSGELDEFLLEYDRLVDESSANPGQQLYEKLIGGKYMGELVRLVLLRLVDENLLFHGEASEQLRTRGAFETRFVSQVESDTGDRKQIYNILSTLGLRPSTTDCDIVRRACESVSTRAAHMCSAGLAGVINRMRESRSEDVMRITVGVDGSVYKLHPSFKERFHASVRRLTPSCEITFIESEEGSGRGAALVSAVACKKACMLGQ
- Assay name: enzymatic glucokinase activity assay (ATP consumption, KinaseGlo luminescence)
- Stated conditions: recombinant GK residues 12-465; 5 μM ATP, 5 mM Glucose; Kact = concentration that displays 50% of the maximal increase in GK activity; read-out: pKact
pEC50: −log10 of the molar value.

# Compound, pEC50
measured = [
    ("CN(C)c1ccc2nc(NC(=O)C(CC3CCOCC3)n3ccc(S(=O)(=O)C4CC4)cc3=O)sc2n1 (centres unmarked) [Example 128]", "> 5.80"),
    ("Cc1cc(S(=O)(=O)C2CCOCC2)cc(=O)n1[C@H](CC1CCCC1)C(=O)Nc1ncc(Cl)s1 [Example 192]", "< 4.80"),
    ("Cc1cc(-c2cc3ccccc3o2)cc(=O)n1[C@@H](CC1CCCCC1)C(=O)Nc1nccs1 [Example 104]", "< 4.80"),
    ("COC(=O)c1cnc(NC(=O)[C@H](CC2CCOCC2)n2ccc(S(=O)(=O)C3CCCC3)cc2=O)s1 [Example 45]", "> 5.80"),
    ("Cc1cc(S(=O)(=O)C2CCOCC2)cc(=O)n1[C@H](CC1CCCC1)C(=O)Nc1ncc(F)s1 [Example 194]", "< 4.80"),
    ("Cc1cc(S(=O)(=O)C2CC2)cc(=O)n1C(CC1CCOCC1)C(=O)Nc1ncc(Cl)s1 (centres unmarked) [Example 157]", "4.80 to 5.80"),
    ("O=C(Nc1ncc(F)s1)C(CC1CCOCC1)n1cc(Cl)c(S(=O)(=O)C2CCCC2)cc1=O (centres unmarked) [Example 186]", "4.80 to 5.80"),
    ("COc1ccc2nc(NC(=O)C(CC3CCOCC3)n3ccc(N4CC[C@H](O)C4)cc3=O)sc2n1 (some centres unmarked) [Example 125]", "< 4.80"),
    ("COC(C)(C)c1cnc(NC(=O)[C@@H](CC2CCOCC2)n2ccc(S(=O)(=O)C3CC3)cc2=O)s1 [Example 132]", "4.80 to 5.80"),
    ("Cc1cc(-c2csc3ccccc23)cc(=O)n1[C@@H](CC1CCCCC1)C(=O)Nc1nccs1 [Example 107]", "< 4.80"),
    ("Cc1cc(-c2ccc(S(C)(=O)=O)cc2)cc(=O)n1[C@@H](CC1CCCCC1)C(=O)Nc1nccs1 [Example 101]", "< 4.80"),
]
